Listing of recorded Relative cAMP EC50, nM (0.1% casein) by entry.
test.system: hGLP-1R (Homo sapiens, UniProt P43220)
Sequence (P43220 24-463): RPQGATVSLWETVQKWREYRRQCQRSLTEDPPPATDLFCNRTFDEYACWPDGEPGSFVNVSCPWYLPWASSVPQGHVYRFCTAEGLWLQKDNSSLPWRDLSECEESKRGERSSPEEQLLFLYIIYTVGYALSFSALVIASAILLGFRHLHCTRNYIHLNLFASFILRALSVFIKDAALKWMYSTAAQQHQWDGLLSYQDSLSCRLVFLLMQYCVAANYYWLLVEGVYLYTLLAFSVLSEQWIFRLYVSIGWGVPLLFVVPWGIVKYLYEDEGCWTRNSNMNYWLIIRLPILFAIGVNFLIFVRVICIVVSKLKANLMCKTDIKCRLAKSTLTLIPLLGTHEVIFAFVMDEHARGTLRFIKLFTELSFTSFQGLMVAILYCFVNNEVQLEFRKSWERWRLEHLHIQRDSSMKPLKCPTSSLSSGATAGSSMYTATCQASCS
experimental.details: cell-based or functional assay
Starred links: 1 amine or outer side, 2 acyl side, 3 side chain; linkers in the order of their positions; H or OH if unused. Non-standard residues stand in square brackets, D forms with d. Groups on a side chain read outwards from the residue. No end group written: not given here. *: point of attachment. C18 diacid = O=C(O)CCCCCCCCCCCCCCCCC(=O)*; γGlu = O=C(O)[C@H](CCC(=O)[*:2])N[*:1]; 4Pal = N[C@@H](Cc1ccncc1)C(=O)O; αMeL = CC(C)C[C@](C)(N)C(=O)O; Dab = NCC[C@H](N)C(=O)O; AEEA = NCCOCCOCC(=O)O; Aib = CC(C)(N)C(=O)O
Report the value in nM with no unit label.

INSERT INTO assay_data (binder, numeric_readout) VALUES
  ('YXQGTXTSDXXIXLDXKAQXNFIEXLQEGGPSSGEPPPE (synthetic construct; SITE 2: note = 2-Aminoisobutyric Acid; SITE 6: note = alpha-methyl-2-fluoro-L-phenylalanine; SITE 10: note = 3-(4-Pyridyl)-L-alanine; SITE 11: note = alpha-methyl-L-serine; SITE 13: note = alpha-methyl-leucine; SITE 16: note = L-ornithine; SITE 17: note = Lysine is chemically mo) [Example 450]', 0.43);

**Q:** For the binder YXQGTFTSDFSXXLDKKAQXAFIEWLLEGGTSSGAPPPSGS (Aib, Orn, αMeL; AEEA-γGlu-C18 diacid Lys; C-term amide; synthetic construct; SITE 2: note = 2-Aminoisobutyric Acid; SITE 12: note = L-ornithine; SITE 13: note = alpha-methyl-leucine; SITE 17: note = Lysine is chemically modified through conjugation of the epsilon-amino group of the Lysine side chain with (2-[2-(2-Amino-ethoxy)-ethoxy]-acetyl)-(gamma-Glu)) [Example 176] , give its reported Relative cAMP EC50, nM (0.1% casein).
**A:** 2.92

**Q:** Output Relative cAMP EC50, nM (0.1% casein) of YXQGTFTSDFSXXLDKKAQXAFIEYLLEXGXSSGAPPPSGE (Aib, Orn, αMeL, 4Pal; lipidated Lys; C-terminal amide; synthetic construct; SITE 2: note = 2-Aminoisobutyric Acid; SITE 12: note = L-ornithine; SITE 13: note = alpha-methyl-leucine; SITE 17: note = Lysine is chemically modified through conjugation of the epsilon-amino group of the Lysine side chain with (2-[2-(2-Amino-ethoxy)-ethoxy]-acetyl)2-(gamma-Glu)) [Example 189]
**A:** 4.46

**Q:** For the binder YXQGTFTSDXSXXLDKKAQXAFIEYLLEXGHSSGAPPPSGS (Aib, F(4CN), Orn, αMeL; lysine acylated C18 diacid; amide; synthetic construct; SITE 2: note = 2-Aminoisobutyric Acid; SITE 10: note = 4-cyano-L-phenylalanine; SITE 12: note = L-ornithine; SITE 13: note = alpha-methyl-leucine; SITE 17: note = Lysine is chemically modified through conjugation of the epsilon-amino group of the Lysine side chain with (2-[2-(2-) [Example 190] , give its reported Relative cAMP EC50, nM (0.1% casein).
**A:** 1.41

**Q:** Look up and report measured Relative cAMP EC50, nM (0.1% casein) for this entry: YXQGTFTSDFSXXLDKKAQXAFIEWLLEGGSSSGAPPPSGT (non-natural residues, acylated Lys, C-terminal amide; synthetic construct; SITE 2: note = 2-Aminoisobutyric Acid; SITE 12: note = L-ornithine; SITE 13: note = alpha-methyl-leucine; SITE 17: note = Lysine is chemically modified through conjugation of the epsilon-amino group of the Lysine side chain with (2-[2-(2-Amino-ethoxy)-ethoxy]-acetyl)-(gamma-Glu)) [Example 174]
**A:** 2.33

**Q:** Hello, please tell me recorded Relative cAMP EC50, nM (0.1% casein) for this one: YXQGTXTSDXXILLDKKAQXAFIEYLEEGGPSSGAPPPE (synthetic construct; SITE 2: note = 2-Aminoisobutyric Acid; SITE 6: note = alpha-methyl-2-fluoro-L-phenylalanine; SITE 10: note = 3-(3-Pyridyl)-L-alanine; SITE 11: note = alpha-methyl-L-serine; SITE 17: note = Lysine is chemically modified through conjugation of the epsilon-amino group of the Lysine) [Example 465]
**A:** 0.575

**Q:** Indicate the recorded Relative cAMP EC50, nM (0.1% casein) value for this binder: YXQGTXTSDXXIXLDXKAQXNFIEYLIEGGPSSGEPPPE (synthetic construct; SITE 2: note = 2-Aminoisobutyric Acid; SITE 6: note = alpha-methyl-2-fluoro-L-phenylalanine; SITE 10: note = 3-(4-Pyridyl)-L-alanine; SITE 11: note = alpha-methyl-L-serine; SITE 13: note = alpha-methyl-leucine; SITE 16: note = L-ornithine; SITE 17: note = Lysine is chemically mo) [Example 449]
**A:** 0.568

**Q:** State its Relative cAMP EC50, nM (0.1% casein) for this binder: YXQGTFTSDFSXXLDKKAQXAFIEYLLEGGHSSGEPPPGGS (non-natural residues; lipidated Lys AEEA-γGlu-C18 diacid; C-term amide; synthetic construct; SITE 2: note = 2-Aminoisobutyric Acid; SITE 12: note = L-ornithine; SITE 13: note = alpha-methyl-leucine; SITE 17: note = Lysine is chemically modified through conjugation of the epsilon-amino group of the Lysine side chain with (2-[2-(2-Amino-ethoxy)-ethoxy]-acetyl)-(gamma-Glu)) [Example 164]
**A:** 5.02

**Q:** Please look at this binder and report its Relative cAMP EC50, nM (0.1% casein): Y[Aib]QGTFTSD[4Pal]S[Dab][αMeL]LDKK([AEEA-γGlu-C18 diacid])AQ[Aib]AFIEYLIE[Aib]GESSGAPPPSGS-NH2 [Example 188]
**A:** 3.43

**Q:** // fetch Relative cAMP EC50, nM (0.1% casein) given entry YXQGTFTSDFSXXLDKKAQXAFIEYLLEXGPSSGAPPPSGT (non-natural residues, acylated Lys, C-terminal amide; synthetic construct; SITE 2: note = 2-Aminoisobutyric Acid; SITE 12: note = L-ornithine; SITE 13: note = alpha-methyl-leucine; SITE 17: note = Lysine is chemically modified through conjugation of the epsilon-amino group of the Lysine side chain with (2-[2-(2-Amino-ethoxy)-ethoxy]-acetyl)2-(gamma-Glu)) [Example 165]
**A:** 6.52

**Q:** Return Relative cAMP EC50, nM (0.1% casein) for the following binder: YXQGTFTSDFSXXLDKKAQXAFIEWLLEGGHSSGAPPPSGT (Aib, Orn, αMeL; K acylated AEEA-γGlu-C18 diacid; C-terminal amide; synthetic construct; SITE 2: note = 2-Aminoisobutyric Acid; SITE 12: note = L-ornithine; SITE 13: note = alpha-methyl-leucine; SITE 17: note = Lysine is chemically modified through conjugation of the epsilon-amino group of the Lysine side chain with (2-[2-(2-Amino-ethoxy)-ethoxy]-acetyl)-(gamma-Glu)) [Example 171]
**A:** 2.89
